# System: HIV
# Assay Details: Table 1 IC50 of the examples (assay method not given; patent concerns inhibiting HIV replication)
# Assay type: cell-based
# Condition Description: Human immunodeficiency virus 1
Please respond with reported pIC50 for every item in the list.
Give bare numbers, as −log10 of the molar value.

Compound	Study System	Endpoint	Quantitative Result
COc1cccc(C(=O)N2CCc3c2cc(C)c([C@H](OC(C)(C)C)C(=O)O)c3-c2ccc(C)cc2)c1F [Example 20]	HIV	pIC50	7.18
COc1c(C)cccc1C(=O)N1CCc2c1cc(C)c([C@H](OC(C)(C)C)C(=O)O)c2-c1cc(F)c2c(c1C)CCCO2 (atropisomer, axis not shown) [Example 87]	HIV	pIC50	8.30

We next turn to a different compound, shown below.
Quote pIC50 reported for COc1ccc(C(=O)N2CCc3c2cc(C)c([C@H](OC(C)(C)C)C(=O)O)c3-c2cc(F)c3c(c2C)CCCO3)c(C(F)(F)F)c1 (atropisomer, axis not shown) [Example 152] please. 7.89
